Test system: CWR22R
Test: Cytotoxicity against human 22Rv1 cells
Format: functional, cell-based
Value kind: pIC50
The quantity pIC50 is defined as the negative base-10 logarithm of the molar concentration.

Compound	Value kind	Result
COC1=C2C[C@@H](C)C[C@H](OC)[C@H](O)[C@@H](C)/C=C(\C)[C@H](OC(N)=O)[C@@H](OC)/C=C\C=C(/C)C(=O)NC(=C(SC)C1=O)C2=O	pIC50	5.43
CNC(=O)c1ccc(N2C(=S)N(c3ccc(C#N)c(C(F)(F)F)c3)C(=O)C2(C)C)cc1F [ENZALUTAMIDE]	pIC50	4.42
COC1=C2C[C@@H](C)C[C@H](OC)[C@H](O)[C@@H](C)/C=C(\C)[C@H](OC(N)=O)[C@@H](OC)/C=C\C=C(/C)C(=O)NC(=CC1=O)C2=O [GELDANAMYCIN]	pIC50	6.07
COC[C@]1(CCC(C)=C(C)C)Nc2ccc(C(=O)NC3=C(O)CCC3=O)cc2C[C@@H]1Cl	pIC50	6.57

Now let's try a different one.
stdin: GET /values?readout=pIC50&system=CWR22R&item= `CC[C@@H]1[C@@H](C)O[C@@](OC)(/C(C)=C/[C@H](C)[C@H]2OC(=O)/C=C/C=C/[C@H](C)[C@@H]([C@@H](C)/C=C(\C)[C@@]3(OC)C[C@@H](OC)[C@H](CC)[C@@H](C)O3)OC(=O)/C=C/C=C/[C@@H]2C)C[C@H]1OC`
stdout: 4.64
